- System under test: T1, human TL1A (human, UniProt O95150 72-251)
- T1 construct: Antigen in SPR and ELISA; Also used here for places that print only 'TL1A' and for endogenous TL1A in human whole blood; also called TNFSF15
- T1 sequence (looked up): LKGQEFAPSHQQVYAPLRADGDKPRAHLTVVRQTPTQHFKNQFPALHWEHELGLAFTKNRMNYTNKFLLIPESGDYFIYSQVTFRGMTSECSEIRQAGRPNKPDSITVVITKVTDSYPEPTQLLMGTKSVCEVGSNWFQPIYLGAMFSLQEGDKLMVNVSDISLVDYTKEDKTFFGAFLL
- Assay info: SPR, Fab format, average
Experimental readout: pKd
Numbers only, as −log10 of the molar value.

>>> observed("Antibody 2 (Fab format) (Fab, V domains shown, High priority lead, Fab format) VH: QVQLQESGPGLVRPSQTLSLTCTVSGLDPDDTYMHWVRQRPGRGLEWMGRIEPAGGHTKYNPSLKSRVTITRDTSKNQVSLRLSSVTAADTAVYYCVISGGLPDVWGQGSLVTVSS VL: DIQMTQSPSSLSASVGDRVTITCRASSSVSYMYWYQQKPGKAPKLLIYATSNLASGVPSRFSGSGSGTDFTFTISSLQPEDIATYYCQQWEGNPRTFGQGTKVEIK")
9.70
>>> observed("Antibody 1 (Fab format) (Fab, V domains shown, High priority lead, Fab format; also called Lead #1) VH: QVQLQESGPGLVRPSQTLSLTCTVSGFDIQDTYMHWVRQRPGRGLEWMGRIEPAGGHTKYNPSLKSRVTITRDTSKNQVSLRLSSVTAADTAVYYCASSGGMPDLWGQGSLVTVSS VL: DIQMTQSPSSLSASVGDRVTITCRASQGVEYMYWYQQKPGKAPKLLIYGASNLASGVPSRFSGSGSGTDFTFTISSLQPEDIATYYCQQWEGNPRTFGQGTKVEIK")
9.77
>>> observed("Antibody 7 (Fab format) (Fab, V domains shown, High priority lead, Fab format) VH: QVQLQESGPGLVRPSQTLSLTCTVSGFDMGDTYMHWVRQRPGRGLEWMGRIEPAAGHTKYNPSLKSRVTITRDTSKNQVSLRLSSVTAADTAVYYCVRSGGLPDIWGQGSLVTVSS VL: DIQMTQSPSSLSASVGDRVTITCRASQGVEYMYWYQQKPGKAPKLLIYGASNLASGVPSRFSGSGSGTDFTFTISSLQPEDIATYYCQQWEGNPRTFGQGTKVEIK")
9.37
>>> observed("Antibody 8 (Fab format) (Fab, V domains shown, High priority lead, Fab format) VH: QVQLQESGPGLVRPSQTLSLTCTVSGFDMQSTYMHWVRQRPGRGLEWMGRIEPAGGHTKYNPSLKSRVTITRDTSKNQVSLRLSSVTAADTAVYYCVRSGGLPDVWGQGSLVTVSS VL: DIQMTQSPSSLSASVGDRVTITCRASSSVSYMYWYQQKPGKAPKLLIYGASNLASGVPSRFSGSGSGTDFTFTISSLQPEDIATYYCQQWEGNPRTFGQGTKVEIK")
9.42
>>> observed("Antibody 15 (Fab format) (Fab, V domains shown, High priority lead, Fab format) VH: QVQLQESGPGLVRPSQTLSLTCTVSGFDIQDTYMHWVRQRPGRGLEWMGRIEPAGGHTKYNPSLKSRVTITRDTSKNQVSLRLSSVTAADTAVYYCVRSGGLPDAWGQGSLVTVSS VL: DIQMTQSPSSLSASVGDRVTITCRASQGIYYMYWYQQKPGKAPKLLIYGASNLASGVPSRFSGSGSGTDFTFTISSLQPEDIATYYCQQWEGNPRTFGQGTKVEIK")
9.30

Give pKd for each of the items listed below.
1. Antibody 13 (Fab format) (Fab, V domains shown, High priority lead, Fab format) VH: QVQLQESGPGLVRPSQTLSLTCTVSGFDYQDTYMHWVRQRPGRGLEWMGRIDPASGHTKYNPSLKSRVTITRDTSKNQVSLRLSSVTAADTAVYYCAVSGGMPDVWGQGSLVTVSS VL: DIQMTQSPSSLSASVGDRVTITCRASQGVEYMYWYQQKPGKAPKLLIYATSNLASGVPSRFSGSGSGTDFTFTISSLQPEDIATYYCQQWEGNPRTFGQGTKVEIK
2. Antibody 12 (Fab format) (Fab, V domains shown, High priority lead, Fab format) VH: QVQLQESGPGLVRPSQTLSLTCTVSGFDITDTYMHWVRQRPGRGLEWMGRIEPAGGHTKYNPSLKSRVTITRDTSKNQVSLRLSSVTAADTAVYYCVRSGGLPDVWGQGSLVTVSS VL: DIQMTQSPSSLSASVGDRVTITCRASQGVEYMYWYQQKPGKAPKLLIYSASNLASGVPSRFSGSGSGTDFTFTISSLQPEDIATYYCQQWEGNPRTFGQGTKVEIK

Response:
1. 9.37
2. 9.37

Give pKd for each of the items listed below.
1. Antibody 17 (Fab format) (Fab, V domains shown, High priority lead, Fab format) VH: QVQLQESGPGLVRPSQTLSLTCTVSGFDMGDTYMHWVRQRPGRGLEWMGRIEPAAGHTKYNPSLKSRVTITRDTSKNQVSLRLSSVTAADTAVYYCVRSGGLPDVWGQGSLVTVSS VL: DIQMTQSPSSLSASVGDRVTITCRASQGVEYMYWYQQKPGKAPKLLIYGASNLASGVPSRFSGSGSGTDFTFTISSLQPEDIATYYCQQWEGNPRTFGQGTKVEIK
2. Antibody 9 (Fab format) (Fab, V domains shown, High priority lead, Fab format) VH: QVQLQESGPGLVRPSQTLSLTCTVSGFDIQDTYMHWVRQRPGRGLEWMGRIEPAGGHTKYNPSLKSRVTITRDTSKNQVSLRLSSVTAADTAVYYCVRSGGLPDAWGQGSLVTVSS VL: DIQMTQSPSSLSASVGDRVTITCRASQGVGYMYWYQQKPGKAPKLLIYSASNLASGVPSRFSGSGSGTDFTFTISSLQPEDIATYYCQQWEGNPRTFGQGTKVEIK
3. Antibody 19 (Fab format) (Fab, V domains shown, High priority lead, Fab format) VH: QVQLQESGPGLVRPSQTLSLTCTVSGFDITDTYMHWVRQRPGRGLEWMGRIEPAGGHTKYNPSLKSRVTITRDTSKNQVSLRLSSVTAADTAVYYCVRSGGLPDVWGQGSLVTVSS VL: DIQMTQSPSSLSASVGDRVTITCRASQGVEYMYWYQQKPGKAPKLLIYYASNLASGVPSRFSGSGSGTDFTFTISSLQPEDIATYYCQQWEGNPRTFGQGTKVEIK

Response:
1. 9.24
2. 9.37
3. 9.14
